# TEST TARGET: UniProt:P50406
# TEST PROTOCOL: Displacement of [3H]LSD from human recombinant 5HT6 receptor expressed in HEK293 cells
METRIC NAME: pKi
Numbers only, as −log10 of the molar value.

Determine reported pKi for O=S(=O)(c1ccccc1F)N1CCOc2c(N3CCNCC3)cc(Cl)cc21 ; test system: UniProt:P50406.
9.40

Parameters: items (list). Returns: pKi for each item.
1. O=S(=O)(c1ccccc1F)N1CC2(CCC2)Oc2c(N3CCNCC3)cccc21
2. O=S(=O)(c1ccccc1)N1CCOc2c(N3CCNCC3)cccc21

[9.20, 7.90]

Determine reported pKi for CC1(C)CN(S(=O)(=O)c2ccccc2)c2cc(F)cc(C3CCNCC3)c2O1 ; test system: UniProt:P50406.
8.40

* * *

# TEST PROTOCOL: Ratio of drug level in brain to plasma in rat at 2 mg/kg, iv after 1 hr
# Type: ADME, organism-based
# Parameters: dose 2 mg/kg, route intravenous
METRIC NAME: Kp at 1 h
One number for each entry.

Worked cases, answers included:
Quote Kp at 1 h reported for O=S(=O)(c1ccccc1Cl)N1CCOc2c(N3CCNCC3)cccc21 please.
1.6

Quote Kp at 1 h reported for O=S(=O)(c1ccccc1F)N1CCOc2c(N3CCNCC3)cc(Cl)cc21 please.
2.7

Quote Kp at 1 h reported for Cc1cc(N2CCNCC2)c2c(c1)N(S(=O)(=O)c1ccccc1)CCO2 please.
1

Quote Kp at 1 h reported for O=S(=O)(c1ccccc1F)N1CCOc2c(N3CCNCC3)cccc21 please.
1.8

Parameters: items (list). Returns: Kp at 1 h for each item.
1. O=S(=O)(c1cccc(Cl)c1)N1CCOc2c(N3CCNCC3)cccc21
2. COc1cc(N2CCNCC2)c2c(c1)N(S(=O)(=O)c1ccccc1)CCO2

1: 1.4; 2: 0.8

* * *

# TEST TARGET: hERG (KCNH2) (Homo sapiens)
# Sequence (Q12809 whole entry): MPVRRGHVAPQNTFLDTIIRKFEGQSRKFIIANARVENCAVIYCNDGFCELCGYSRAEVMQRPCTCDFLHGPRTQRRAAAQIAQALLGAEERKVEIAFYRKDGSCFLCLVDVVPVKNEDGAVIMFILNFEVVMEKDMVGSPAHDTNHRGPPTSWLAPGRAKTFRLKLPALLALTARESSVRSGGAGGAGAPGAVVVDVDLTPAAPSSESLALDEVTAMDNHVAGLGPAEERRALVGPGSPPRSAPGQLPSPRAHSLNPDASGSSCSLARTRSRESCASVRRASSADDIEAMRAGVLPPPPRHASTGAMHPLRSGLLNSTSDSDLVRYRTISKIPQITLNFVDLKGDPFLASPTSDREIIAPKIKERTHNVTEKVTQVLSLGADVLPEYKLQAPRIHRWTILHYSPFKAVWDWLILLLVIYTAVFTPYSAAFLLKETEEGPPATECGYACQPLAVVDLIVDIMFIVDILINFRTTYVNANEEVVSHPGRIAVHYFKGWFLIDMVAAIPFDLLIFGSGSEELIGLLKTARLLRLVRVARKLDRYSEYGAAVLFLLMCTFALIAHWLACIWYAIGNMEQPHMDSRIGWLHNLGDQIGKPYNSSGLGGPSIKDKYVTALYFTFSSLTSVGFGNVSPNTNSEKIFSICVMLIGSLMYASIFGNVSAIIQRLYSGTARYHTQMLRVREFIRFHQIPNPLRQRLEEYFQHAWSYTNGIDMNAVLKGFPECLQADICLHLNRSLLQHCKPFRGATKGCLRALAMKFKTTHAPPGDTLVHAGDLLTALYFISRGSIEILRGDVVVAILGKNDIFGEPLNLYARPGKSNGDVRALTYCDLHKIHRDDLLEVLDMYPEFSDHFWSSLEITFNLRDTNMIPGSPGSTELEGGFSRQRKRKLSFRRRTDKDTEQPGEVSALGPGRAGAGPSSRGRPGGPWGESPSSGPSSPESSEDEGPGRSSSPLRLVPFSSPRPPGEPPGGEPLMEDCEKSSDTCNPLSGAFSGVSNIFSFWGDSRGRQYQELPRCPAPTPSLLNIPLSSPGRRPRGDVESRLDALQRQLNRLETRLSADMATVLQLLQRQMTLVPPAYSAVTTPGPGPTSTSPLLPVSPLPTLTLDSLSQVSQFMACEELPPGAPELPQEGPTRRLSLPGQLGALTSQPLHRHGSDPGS
# TEST PROTOCOL: Inhibition of hERG current by patch clamp electrophysiology assay
# Assay type: toxicity
METRIC NAME: IC20 (nM)
Give bare numbers, in nM.

Quote IC20 reported for O=S(=O)(c1ccccc1F)N1CCOc2c(N3CCNCC3)cccc21 please.
2200

* * *

# TEST TARGET: 5-hydroxytryptamine receptor 6 (Homo sapiens, UniProt P50406)
# Sequence (P50406 whole entry): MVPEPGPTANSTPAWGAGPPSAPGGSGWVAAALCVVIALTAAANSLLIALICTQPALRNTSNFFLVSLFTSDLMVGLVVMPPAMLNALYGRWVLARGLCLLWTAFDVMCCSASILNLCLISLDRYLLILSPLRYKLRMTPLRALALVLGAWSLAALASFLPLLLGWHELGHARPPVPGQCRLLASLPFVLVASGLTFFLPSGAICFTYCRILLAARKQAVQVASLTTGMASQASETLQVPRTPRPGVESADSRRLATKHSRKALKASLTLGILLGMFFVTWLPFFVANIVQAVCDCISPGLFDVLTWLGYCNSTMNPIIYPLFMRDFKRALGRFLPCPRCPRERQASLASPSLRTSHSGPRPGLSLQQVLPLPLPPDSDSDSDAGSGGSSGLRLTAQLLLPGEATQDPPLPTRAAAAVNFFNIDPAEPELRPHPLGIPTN
# TEST PROTOCOL: Displacement of [3H]LSD from human recombinant 5HT6 receptor expressed in HEK293 cells
METRIC NAME: Ki
The reply should read as a number followed by its unit.

Worked cases, answers included:
Determine reported Ki for O=S(=O)(c1ccccc1F)N1CCOc2c(N3CCNCC3)cc(F)cc21 ; test system: 5-hydroxytryptamine receptor 6 (Homo sapiens, UniProt P50406).
0.631 nM

Determine reported Ki for CS(=O)(=O)Nc1cccc(S(=O)(=O)N2CCOc3c(N4CCNCC4)cccc32)c1 ; test system: 5-hydroxytryptamine receptor 6 (Homo sapiens, UniProt P50406).
200 nM

Determine reported Ki for Cc1cc(N2CCNCC2)c2c(c1)N(S(=O)(=O)c1ccccc1)CCO2 ; test system: 5-hydroxytryptamine receptor 6 (Homo sapiens, UniProt P50406).
2.51 nM

Determine reported Ki for CN(C)CCNc1cccc2c1OC(C)(C)CN2S(=O)(=O)c1cccc(F)c1 ; test system: 5-hydroxytryptamine receptor 6 (Homo sapiens, UniProt P50406).
126 nM

Determine reported Ki for Nc1ccc(S(=O)(=O)N2CCOc3c(N4CCNCC4)cc(F)cc32)cc1 ; test system: 5-hydroxytryptamine receptor 6 (Homo sapiens, UniProt P50406).
1.26 nM

Determine reported Ki for O=S(=O)(c1cccc(Cl)c1)N1CCOc2c(N3CCNCC3)cccc21 ; test system: 5-hydroxytryptamine receptor 6 (Homo sapiens, UniProt P50406).
2 nM

Determine reported Ki for CC(C)(C)c1cc(N2CCNCC2)c2c(c1)N(S(=O)(=O)c1ccccc1F)CCO2 ; test system: 5-hydroxytryptamine receptor 6 (Homo sapiens, UniProt P50406).
7.94 nM

Determine reported Ki for O=S(=O)(c1cccc2cccnc12)N1CCOc2c(N3CCNCC3)cc(Cl)cc21 ; test system: 5-hydroxytryptamine receptor 6 (Homo sapiens, UniProt P50406).
0.631 nM

Determine reported Ki for Cc1cc(N2CC(C)NC(C)C2)c2c(c1)N(S(=O)(=O)c1ccc(Cl)cc1)CCO2 (stereo unspecified) ; test system: 5-hydroxytryptamine receptor 6 (Homo sapiens, UniProt P50406).
39.8 nM

Determine reported Ki for Cc1cc(N2CCNCC2)c2c(c1)N(S(=O)(=O)c1ccccc1F)CCO2 ; test system: 5-hydroxytryptamine receptor 6 (Homo sapiens, UniProt P50406).
0.398 nM

Parameters: items (list). Returns: Ki for each item.
1. COc1cc(N2CCNCC2)c2c(c1)N(S(=O)(=O)c1ccccc1)CCO2
2. CC1(C)CN(S(=O)(=O)c2ccccc2F)c2cccc(N3CCNCC3)c2O1
3. Nc1cccc2c1OCCN2S(=O)(=O)c1ccccc1F
4. CS(=O)(=O)c1ccccc1S(=O)(=O)N1CCOc2c(N3CCNCC3)cccc21
5. O=S(=O)(c1ccccc1)N1CCOc2c(N3CCCNCC3)cc(Cl)cc21
6. CC1(C)CN(S(=O)(=O)c2cccc(F)c2)c2cc(F)cc(C3CCNCC3)c2O1
7. O=S(=O)(c1cccc(F)c1)N1CCOc2c(N3CCNCC3)cccc21
8. COc1cc(N2CCNCC2)c2c(c1)N(S(=O)(=O)c1ccccc1F)CCO2

["0.398 nM", "0.316 nM", "631 nM", "316 nM", "3.98 nM", "5.01 nM", "10 nM", "0.158 nM"]

* * *

# TEST TARGET: 5-hydroxytryptamine receptor 6 (Homo sapiens)
# TEST PROTOCOL: Displacement of [3H]LSD from human recombinant 5HT6 receptor expressed in HEK293 cells
Please go through the items and note down their Ki.
The reply should read as a number followed by its unit.

Worked cases, answers included:
Quote Ki reported for O=S(=O)(c1cccc2ccccc12)N1CCOc2c(N3CCNCC3)cc(Cl)cc21 please.
0.794 nM

Quote Ki reported for Cc1cc(N2CCNCC2)c2c(c1)N(S(=O)(=O)c1ccccc1C#N)CCO2 please.
2 nM

Consider the additional compound presented here.
Quote Ki reported for O=S(=O)(c1ccccc1Cl)N1CCOc2c(N3CCNCC3)cccc21 please.
3.16 nM
